target: ER; assay: Binding to ER (steroid receptor selectivity profile)
result_type: IC50

For the record CC(C)c1ccc2c(c1O)C(C)(C)CC(O)(C(F)(F)F)C2Nc1cccc2c1ccc(=O)n2-c1ccc(F)nc1 (stereo not shown) , what value of IC50 is listed for ER?
> 1000 nM

###

Target: androgen receptor (AR) (Homo sapiens)
Construct: made in house
Sequence (P10275 whole entry, species assumed): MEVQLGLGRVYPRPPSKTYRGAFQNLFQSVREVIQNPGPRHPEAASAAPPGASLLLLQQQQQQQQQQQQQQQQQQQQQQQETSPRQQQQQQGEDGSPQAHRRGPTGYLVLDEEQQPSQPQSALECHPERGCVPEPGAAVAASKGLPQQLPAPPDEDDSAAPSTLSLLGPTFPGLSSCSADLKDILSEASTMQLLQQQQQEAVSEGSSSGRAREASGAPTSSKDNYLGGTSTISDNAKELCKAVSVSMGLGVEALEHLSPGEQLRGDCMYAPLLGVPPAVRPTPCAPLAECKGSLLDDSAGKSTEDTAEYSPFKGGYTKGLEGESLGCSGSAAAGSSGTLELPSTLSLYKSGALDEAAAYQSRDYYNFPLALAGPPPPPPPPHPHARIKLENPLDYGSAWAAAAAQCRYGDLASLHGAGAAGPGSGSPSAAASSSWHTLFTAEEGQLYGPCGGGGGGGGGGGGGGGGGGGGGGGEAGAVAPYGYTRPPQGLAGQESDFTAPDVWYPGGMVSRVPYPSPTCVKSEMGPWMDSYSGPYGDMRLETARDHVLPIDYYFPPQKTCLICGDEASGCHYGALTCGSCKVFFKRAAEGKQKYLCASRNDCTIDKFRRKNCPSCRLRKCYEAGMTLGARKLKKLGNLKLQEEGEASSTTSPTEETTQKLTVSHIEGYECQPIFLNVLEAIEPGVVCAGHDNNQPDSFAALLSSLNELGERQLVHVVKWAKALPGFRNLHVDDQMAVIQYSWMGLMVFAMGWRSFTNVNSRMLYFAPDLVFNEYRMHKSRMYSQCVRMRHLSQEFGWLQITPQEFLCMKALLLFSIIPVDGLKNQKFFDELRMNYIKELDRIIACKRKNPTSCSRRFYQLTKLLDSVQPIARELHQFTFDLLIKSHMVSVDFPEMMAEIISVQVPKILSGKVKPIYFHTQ
Assay: Binding to recombinantly produced androgen receptor
Source text: The binding of the substances to the glucocorticoid receptor (GR) and other steroid hormone receptors (mineral corticoid receptor (MR), progesterone receptor (PR) and androgen receptor (AR)) is examined with the aid of recombinantly produced receptors. Cytosol preparations of Sf9 cells, which had been infected with recombinant baculoviruses, which code for the GR, are used for the binding studies. […]
pIC50: −log10 of the molar value.
result_type: pIC50

Data request, read-out pIC50, for CC(C)c1ccc2c(c1O)C(C)(C)CC(O)(C(F)(F)F)C2Nc1cccc2c1ccc(=O)n2-c1ccc(F)nc1 (stereo not shown) [Example 2]
< 6.00

###

Biological target: mineral corticoid receptor (MR) (Homo sapiens)
Sequence (P08235 whole entry): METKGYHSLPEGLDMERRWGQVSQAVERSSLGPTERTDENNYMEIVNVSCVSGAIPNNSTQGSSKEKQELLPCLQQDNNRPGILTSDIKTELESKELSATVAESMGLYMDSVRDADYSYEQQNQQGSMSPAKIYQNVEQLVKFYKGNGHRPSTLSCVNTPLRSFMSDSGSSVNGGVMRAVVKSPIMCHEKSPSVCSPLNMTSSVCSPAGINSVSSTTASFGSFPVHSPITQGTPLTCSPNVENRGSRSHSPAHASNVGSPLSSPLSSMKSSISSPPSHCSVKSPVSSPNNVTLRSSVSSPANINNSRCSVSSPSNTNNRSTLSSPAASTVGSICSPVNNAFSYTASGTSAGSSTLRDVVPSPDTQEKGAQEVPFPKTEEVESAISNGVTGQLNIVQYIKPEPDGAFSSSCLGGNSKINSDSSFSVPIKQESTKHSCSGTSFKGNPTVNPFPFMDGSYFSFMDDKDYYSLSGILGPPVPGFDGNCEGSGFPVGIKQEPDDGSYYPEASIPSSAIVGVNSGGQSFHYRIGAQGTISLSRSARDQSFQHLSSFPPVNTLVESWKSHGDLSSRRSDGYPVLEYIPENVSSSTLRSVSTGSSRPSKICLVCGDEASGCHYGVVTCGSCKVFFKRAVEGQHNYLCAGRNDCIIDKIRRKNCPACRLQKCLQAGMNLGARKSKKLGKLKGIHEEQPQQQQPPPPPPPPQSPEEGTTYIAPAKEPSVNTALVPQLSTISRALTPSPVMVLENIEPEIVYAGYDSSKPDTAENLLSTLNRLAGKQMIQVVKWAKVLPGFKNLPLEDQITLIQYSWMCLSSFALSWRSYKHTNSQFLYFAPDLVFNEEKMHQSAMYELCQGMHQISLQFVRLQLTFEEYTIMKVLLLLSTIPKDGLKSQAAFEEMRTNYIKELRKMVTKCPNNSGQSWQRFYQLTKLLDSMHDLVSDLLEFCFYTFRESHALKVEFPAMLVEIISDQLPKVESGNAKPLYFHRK
Test: Binding to recombinantly produced mineral corticoid receptor
From the text: The binding of the substances to the glucocorticoid receptor (GR) and other steroid hormone receptors (mineral corticoid receptor (MR), progesterone receptor (PR) and androgen receptor (AR)) is examined with the aid of recombinantly produced receptors. Cytosol preparations of Sf9 cells, which had been infected with recombinant baculoviruses, which code for the GR, are used for the binding studies. […]
result_type: IC50

Data request, read-out IC50, for CC(C)c1ccc2c(c1O)C(C)(C)CC(O)(C(F)(F)F)C2Nc1cccc2c1ccc(=O)n2-c1ccc(F)nc1 (stereo not shown) [Example 2]
> 1000 nM
